This section presents compounds with their documented remaining activity at 10 µM values.
Biological target: 5-LO (Homo sapiens)
Test: 5-LO product formation in intact human neutrophils stimulated with A23187 (cell-based)
Set-up: 5-LO product formation in intact human neutrophils; endogenous in cells; host or cells: freshly isolated human peripheral blood neutrophils
Settings: residual activity at 10 µM; human neutrophils, A23187; mean ± SEM, 3–4 experiments; read-out: 5-LO Activity [% Control] cell-based
// units = %; emit number, no label

# example entries with known answers
compound	remaining activity at 10 µM (%)
C[C@H]1[C@H](C)CC[C@]2(C)CC[C@]3(C)C(=C[C@H](O)[C@@H]4[C@@]5(C)CC[C@@H](O)[C@](C)(C(=O)O)[C@@H]5CC[C@]43C)[C@H]12 [compound 19, 11β-hydroxy-β-boswellic acid]	58.2
C[C@H]1[C@H](C)CC[C@]2(C)CC[C@]3(C)C(=CC[C@@H]4[C@@]5(C)CC[C@@H](OCC(=O)O)[C@](C)(C(=O)O)[C@@H]5CC[C@]43C)[C@H]12 [compound 26, 3-O-Carboxymethyl-β-boswellic acid]	57.6
C=C(C)[C@@H]1CC[C@]2(CO)CC[C@]3(C)[C@H](CC[C@@H]4[C@@]5(C)CC[C@@H](O)[C@](C)(C(=O)O)[C@@H]5CC[C@]43C)[C@@H]12 [compound 11]	24
C=C(C)[C@@H]1CC[C@]2(CO)CC[C@]3(C)[C@H](CC[C@@H]4[C@@]5(C)CC[C@@H](OC(C)=O)[C@](C)(C(=O)O)[C@@H]5CC[C@]43C)[C@@H]12 [compound 12]	28.4
CC(=O)O[C@@H]1CC[C@@]2(C)[C@@H](CC[C@]3(C)[C@@H]2C(=O)C=C2[C@@H]4[C@@H](C)[C@H](C)CC[C@]4(C)CC[C@]23C)[C@@]1(C)C(=O)O [compound 1, 3-O-acteyl-11-keto-β-BA]	23.1
C[C@H]1[C@H](C)CC[C@]2(C)CC[C@]3(C)C(=CC[C@@H]4[C@@]5(C)CC[C@@H](OC(=O)CCC(=O)O)[C@](C)(C(=O)O)[C@@H]5CC[C@]43C)[C@H]12 [compound 22, 3-O-Succinoyl-β-boswellic acid]	60.3

Query block: Fill blank: measured remaining activity at 10 µM of the compound C[C@H]1[C@H](C)CC[C@]2(C)CC[C@]3(C)C(=CC[C@@H]4[C@@]5(C)CC[C@@H](O)[C@](C)(C(=O)O)[C@@H]5CC[C@]43C)[C@H]12 [compound 3, β-BA] is ____.
Result block: 53

Query block: Fill blank: measured remaining activity at 10 µM of the compound C[C@H]1[C@H](C)CC[C@]2(C)CC[C@]3(C)C(=CC(=O)[C@@H]4[C@@]5(C)CC[C@@H](OCC(=O)O)[C@](C)(C(=O)O)[C@@H]5CC[C@]43C)[C@H]12 [compound 27] is ____.
Result block: 68.4

Query block: Fill blank: measured remaining activity at 10 µM of the compound C[C@H]1[C@H](C)CC[C@]2(C)CC[C@]3(C)C(=C[C@@H](O)[C@@H]4[C@@]5(C)CC[C@@H](O)[C@](C)(C(=O)O)[C@@H]5CC[C@]43C)[C@H]12 [compound 18, 11α-Hydroxy-β-boswellic acid] is ____.
Result block: 18.3

----------
This section presents molecules with their documented pIC50 values.
Biological target: 5-LO (Homo sapiens, UniProt P09917)
Sequence (P09917 1-674): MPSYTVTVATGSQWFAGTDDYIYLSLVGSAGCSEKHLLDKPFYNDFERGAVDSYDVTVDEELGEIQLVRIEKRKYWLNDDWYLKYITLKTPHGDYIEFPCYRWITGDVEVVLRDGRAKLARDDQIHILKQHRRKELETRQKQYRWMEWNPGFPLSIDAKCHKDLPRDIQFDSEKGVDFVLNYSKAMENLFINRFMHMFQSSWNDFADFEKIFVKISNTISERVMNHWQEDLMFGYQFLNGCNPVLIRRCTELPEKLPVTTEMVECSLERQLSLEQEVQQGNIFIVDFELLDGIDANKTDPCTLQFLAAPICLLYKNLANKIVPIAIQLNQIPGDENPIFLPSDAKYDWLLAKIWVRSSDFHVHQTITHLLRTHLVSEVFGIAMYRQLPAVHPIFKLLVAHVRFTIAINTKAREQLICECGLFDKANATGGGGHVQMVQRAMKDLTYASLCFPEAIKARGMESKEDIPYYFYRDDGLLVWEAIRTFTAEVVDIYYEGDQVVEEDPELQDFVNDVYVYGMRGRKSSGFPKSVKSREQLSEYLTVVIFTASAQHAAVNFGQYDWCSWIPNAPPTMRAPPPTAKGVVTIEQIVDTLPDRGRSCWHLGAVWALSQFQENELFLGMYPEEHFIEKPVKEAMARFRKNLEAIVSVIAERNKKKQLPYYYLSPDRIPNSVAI
Experiment: 5-LO product formation in intact human neutrophils stimulated with A23187 (cell-based)
Design: 5-LO product formation in intact human neutrophils; endogenous in cells; host or cells: freshly isolated human peripheral blood neutrophils
Conditions: human neutrophils stimulated with A23187
Bear in mind: pIC50 is minus log10 of a mol/L concentration; give just that figure.

molecule	pIC50
CC(C)[C@@H]1CC[C@]2(C)[C@H](C(=O)C=C3[C@@H]4[C@@H](C)[C@H](C)CC[C@]4(C)CC[C@]32C)[C@@]1(C)CCC(=O)O	5.37
CC(C)=CCC[C@H](C(=O)O)[C@@H]1CC[C@]2(C)C3=C(CC[C@@]12C)[C@@]1(C)CCC(=O)C(C)(C)[C@@H]1CC3	5.15
C[C@H]1[C@H](C)CC[C@]2(C)CC[C@]3(C)C(=C[C@@H](O)[C@@H]4[C@@]5(C)CC[C@@H](O)[C@](C)(C(=O)O)[C@@H]5CC[C@]43C)[C@H]12 [compound 18, 11α-Hydroxy-β-boswellic acid]	5.55
C=C(C)[C@@H]1CC[C@]2(CO)CC[C@]3(C)[C@H](CC[C@@H]4[C@@]5(C)CC[C@@H](O)[C@](C)(C(=O)O)[C@@H]5CC[C@]43C)[C@@H]12	5.34
CC(=O)O[C@@H]1CC[C@@]2(C)[C@@H](CC[C@]3(C)[C@@H]2C(=O)C=C2[C@@H]4[C@@H](C)[C@H](C)CC[C@]4(C)CC[C@]23C)[C@@]1(C)C(=O)O	5.52
CC(C)=CCC[C@H](C(=O)O)[C@@H]1CC[C@]2(C)C3=CC[C@H]4C(C)(C)[C@H](O)CC[C@]4(C)[C@H]3CC[C@@]12C	5.54
C[C@H]1[C@H](C)CC[C@]2(C)CC[C@]3(C)C(=CC(=O)[C@@H]4[C@@]5(C)CC[C@@H](O)[C@](C)(C(=O)O)[C@@H]5CC[C@]43C)[C@H]12	5.46
CC(C)=CCC[C@H](C(=O)O)[C@@H]1CC[C@]2(C)C3=C(CC[C@@]12C)[C@@]1(C)CC[C@@H](O)C(C)(C)[C@@H]1CC3	5.96
C=C(C)[C@@H]1CC[C@]2(CO)CC[C@]3(C)[C@H](CC[C@@H]4[C@@]5(C)CC[C@@H](OC(C)=O)[C@](C)(C(=O)O)[C@@H]5CC[C@]43C)[C@@H]12	5.29
C=C(C)[C@@H]1CC[C@]2(C)CC[C@]3(C)[C@H](CC[C@@H]4[C@@]5(C)CC[C@@H](O)[C@](C)(C(=O)O)[C@@H]5CC[C@]43C)[C@@H]12	5.40

Query block: Fill blank: measured pIC50 of the molecule CC(C)=CCC[C@H](C(=O)O)[C@@H]1CC[C@]2(C)C3=C(CC[C@@]12C)[C@@]1(C)CC[C@H](O)C(C)(C)[C@@H]1CC3 is ____.
Result block: 5.52

----------
Biological target: 5-LO (Homo sapiens, UniProt P09917)
Assay: 5-LO product formation in intact human neutrophils stimulated with A23187 (cell-based)
Set-up: 5-LO product formation in intact human neutrophils; endogenous in cells; host or cells: freshly isolated human peripheral blood neutrophils
Conditions: residual activity at 10 µM; human neutrophils, A23187; mean ± SEM, 3–4 experiments; read-out: 5-LO Activity [% Control] cell-based
This section presents compounds with their documented remaining activity at 10 µM values.
// units = %; emit number, no label

# example entries with known answers
smilesNotation	remaining activity at 10 µM [%]
CC(C)=CCC[C@H](C(=O)O)[C@@H]1CC[C@]2(C)C3=CC[C@H]4C(C)(C)[C@H](O)CC[C@]4(C)[C@H]3CC[C@@]12C	8.2
C[C@H]1[C@H](C)CC[C@]2(C)CC[C@]3(C)C(=CC[C@@H]4[C@@]5(C)CC[C@@H](OC(=O)CCCC(=O)O)[C@](C)(C(=O)O)[C@@H]5CC[C@]43C)[C@H]12	65.3
C[C@H]1[C@H](C)CC[C@]2(C)CC[C@]3(C)C(=CC[C@@H]4[C@@]5(C)CC[C@@H](OC(=O)C(=O)O)[C@](C)(C(=O)O)[C@@H]5CC[C@]43C)[C@H]12	77.3
CC(C)=CCC[C@H](C(=O)O)[C@@H]1CC[C@]2(C)C3=C(CC[C@@]12C)[C@@]1(C)CCC(=O)C(C)(C)[C@@H]1CC3	37.8
C=C(C)[C@@H]1CC[C@]2(C)CC[C@]3(C)[C@H](CC[C@@H]4[C@@]5(C)CC[C@@H](OC(C)=O)[C@](C)(C(=O)O)[C@@H]5CC[C@]43C)[C@@H]12	88.7
CC(C)=CCC[C@H](C(=O)O)[C@@H]1CC[C@]2(C)C3=C(CC[C@@]12C)[C@@]1(C)CC[C@H](O)C(C)(C)[C@@H]1CC3	5.2

Okay, next one:
Query block: Fill blank: measured remaining activity at 10 µM of the compound C=C(C)[C@@H]1CC[C@]2(C)[C@H](CC=C3[C@@H]4[C@@H](C)[C@H](C)CC[C@]4(C)CC[C@]32C)[C@@]1(C)CCC(=O)O is ____.
Result block: 74.5
